The reported numbers originate from ChEMBL document CHEMBL1136471.

- Method Notes: Binding constant towards cyclodextrin conjugated peptide (with pyrene) at 25 degrees Centigrade
Measured Activity of individual entries

Below are worked cases with known answers.
Compound	Activity
C[C@H](CCC(=O)O)[C@H]1CC[C@H]2[C@@H]3[C@H](O)C[C@@H]4C[C@H](O)CC[C@]4(C)[C@H]3C[C@H](O)[C@]12C	900 Kb M-1
C[C@H](CCC(=O)O)[C@H]1CC[C@H]2[C@@H]3[C@H](O)C[C@@H]4C[C@H](O)CC[C@]4(C)[C@H]3CC[C@]12C	33300 Kb M-1

Now take the following compound into account.
[Q] Any idea what Activity was measured for C[C@H](CCC(=O)O)[C@H]1CC[C@H]2[C@@H]3CC[C@@H]4C[C@H](O)CCC4(C)[C@H]3C[C@H](O)[C@]12C (single isomer, unassigned) ?
[A] 1100 Kb M-1
